# MEASUREMENT TARGET: T1, full length human DLL4 (human, UniProt Q9NR61 27-685)
# T1 construct: whole, on cells; also called native DLL4 expressed in HEK293 cells
# T1 sequence (Q9NR61 27-685): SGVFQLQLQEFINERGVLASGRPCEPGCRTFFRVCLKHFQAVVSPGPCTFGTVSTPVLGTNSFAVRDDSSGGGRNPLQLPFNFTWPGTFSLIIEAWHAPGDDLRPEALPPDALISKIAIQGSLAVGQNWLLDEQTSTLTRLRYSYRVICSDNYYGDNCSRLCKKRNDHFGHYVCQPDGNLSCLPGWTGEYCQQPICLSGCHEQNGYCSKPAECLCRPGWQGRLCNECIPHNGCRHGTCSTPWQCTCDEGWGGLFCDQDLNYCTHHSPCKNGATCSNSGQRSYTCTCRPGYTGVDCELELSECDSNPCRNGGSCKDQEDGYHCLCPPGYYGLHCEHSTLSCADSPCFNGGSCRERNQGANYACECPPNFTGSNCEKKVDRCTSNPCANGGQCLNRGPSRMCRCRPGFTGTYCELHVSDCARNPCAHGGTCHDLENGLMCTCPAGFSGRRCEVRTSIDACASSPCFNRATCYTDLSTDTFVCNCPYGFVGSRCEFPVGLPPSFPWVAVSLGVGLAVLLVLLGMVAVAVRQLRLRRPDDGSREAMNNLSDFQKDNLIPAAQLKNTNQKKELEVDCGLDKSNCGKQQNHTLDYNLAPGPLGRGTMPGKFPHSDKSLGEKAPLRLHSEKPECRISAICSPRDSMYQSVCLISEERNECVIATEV
# METHOD DESCRIPTION: FMAT competition, purified antibody vs Alexa-647 human Notch1/Fc, 293T cells with human DLL4
Below, each of the binders is paired with its reported % inhibition at 0.21 nM value.
Quick reminder: number only, in %, skip the unit.

Examples from the recorded data:
BINDER	MEASURED VALUE
3A7 (antibody, IgG4, V domains shown, Fully human; also used where no isotype is printed) VH: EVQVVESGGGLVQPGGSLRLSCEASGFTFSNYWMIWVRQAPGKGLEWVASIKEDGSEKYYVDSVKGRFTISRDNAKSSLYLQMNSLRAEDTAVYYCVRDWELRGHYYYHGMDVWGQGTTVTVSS VL: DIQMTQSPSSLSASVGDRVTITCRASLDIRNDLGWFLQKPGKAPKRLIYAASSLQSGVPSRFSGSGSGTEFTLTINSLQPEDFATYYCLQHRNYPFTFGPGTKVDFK	-1
9G8 (antibody, IgG4, V domains shown, Fully human; used for IgG4 rows and where no isotype is printed; also called 9G8 IgG4) VH: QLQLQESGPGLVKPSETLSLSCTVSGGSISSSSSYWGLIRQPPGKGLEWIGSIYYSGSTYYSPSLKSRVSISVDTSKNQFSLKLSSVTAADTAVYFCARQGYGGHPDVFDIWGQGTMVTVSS VL: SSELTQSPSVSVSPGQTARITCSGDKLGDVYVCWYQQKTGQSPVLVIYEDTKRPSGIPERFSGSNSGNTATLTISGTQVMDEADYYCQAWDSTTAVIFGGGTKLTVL	33

// next entry
Problem: Recorded % inhibition at 0.21 nM for 21H3 (antibody, IgG4, V domains shown, Fully human; used for IgG4 rows and where no isotype is printed; also called 21H3 IgG4) VH: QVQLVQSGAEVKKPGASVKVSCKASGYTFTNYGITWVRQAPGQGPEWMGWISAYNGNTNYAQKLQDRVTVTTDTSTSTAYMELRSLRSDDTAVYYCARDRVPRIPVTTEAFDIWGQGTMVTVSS VL: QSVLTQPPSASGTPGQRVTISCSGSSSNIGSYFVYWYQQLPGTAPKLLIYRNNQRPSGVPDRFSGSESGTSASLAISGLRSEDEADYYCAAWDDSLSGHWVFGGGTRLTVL , please?
Solution: 25
